Below, each of the molecules is paired with its reported pIC50 value.
# measurement_target: ATM (Homo sapiens)
# Construct: detecting phosphorylation of Chk2 in a human non-small cell lung cancer cell line NCI-H460 (ATCC company); host or cells: NCI-H460 human non-small cell lung cancer cells
# Sequence (Q13315 whole entry): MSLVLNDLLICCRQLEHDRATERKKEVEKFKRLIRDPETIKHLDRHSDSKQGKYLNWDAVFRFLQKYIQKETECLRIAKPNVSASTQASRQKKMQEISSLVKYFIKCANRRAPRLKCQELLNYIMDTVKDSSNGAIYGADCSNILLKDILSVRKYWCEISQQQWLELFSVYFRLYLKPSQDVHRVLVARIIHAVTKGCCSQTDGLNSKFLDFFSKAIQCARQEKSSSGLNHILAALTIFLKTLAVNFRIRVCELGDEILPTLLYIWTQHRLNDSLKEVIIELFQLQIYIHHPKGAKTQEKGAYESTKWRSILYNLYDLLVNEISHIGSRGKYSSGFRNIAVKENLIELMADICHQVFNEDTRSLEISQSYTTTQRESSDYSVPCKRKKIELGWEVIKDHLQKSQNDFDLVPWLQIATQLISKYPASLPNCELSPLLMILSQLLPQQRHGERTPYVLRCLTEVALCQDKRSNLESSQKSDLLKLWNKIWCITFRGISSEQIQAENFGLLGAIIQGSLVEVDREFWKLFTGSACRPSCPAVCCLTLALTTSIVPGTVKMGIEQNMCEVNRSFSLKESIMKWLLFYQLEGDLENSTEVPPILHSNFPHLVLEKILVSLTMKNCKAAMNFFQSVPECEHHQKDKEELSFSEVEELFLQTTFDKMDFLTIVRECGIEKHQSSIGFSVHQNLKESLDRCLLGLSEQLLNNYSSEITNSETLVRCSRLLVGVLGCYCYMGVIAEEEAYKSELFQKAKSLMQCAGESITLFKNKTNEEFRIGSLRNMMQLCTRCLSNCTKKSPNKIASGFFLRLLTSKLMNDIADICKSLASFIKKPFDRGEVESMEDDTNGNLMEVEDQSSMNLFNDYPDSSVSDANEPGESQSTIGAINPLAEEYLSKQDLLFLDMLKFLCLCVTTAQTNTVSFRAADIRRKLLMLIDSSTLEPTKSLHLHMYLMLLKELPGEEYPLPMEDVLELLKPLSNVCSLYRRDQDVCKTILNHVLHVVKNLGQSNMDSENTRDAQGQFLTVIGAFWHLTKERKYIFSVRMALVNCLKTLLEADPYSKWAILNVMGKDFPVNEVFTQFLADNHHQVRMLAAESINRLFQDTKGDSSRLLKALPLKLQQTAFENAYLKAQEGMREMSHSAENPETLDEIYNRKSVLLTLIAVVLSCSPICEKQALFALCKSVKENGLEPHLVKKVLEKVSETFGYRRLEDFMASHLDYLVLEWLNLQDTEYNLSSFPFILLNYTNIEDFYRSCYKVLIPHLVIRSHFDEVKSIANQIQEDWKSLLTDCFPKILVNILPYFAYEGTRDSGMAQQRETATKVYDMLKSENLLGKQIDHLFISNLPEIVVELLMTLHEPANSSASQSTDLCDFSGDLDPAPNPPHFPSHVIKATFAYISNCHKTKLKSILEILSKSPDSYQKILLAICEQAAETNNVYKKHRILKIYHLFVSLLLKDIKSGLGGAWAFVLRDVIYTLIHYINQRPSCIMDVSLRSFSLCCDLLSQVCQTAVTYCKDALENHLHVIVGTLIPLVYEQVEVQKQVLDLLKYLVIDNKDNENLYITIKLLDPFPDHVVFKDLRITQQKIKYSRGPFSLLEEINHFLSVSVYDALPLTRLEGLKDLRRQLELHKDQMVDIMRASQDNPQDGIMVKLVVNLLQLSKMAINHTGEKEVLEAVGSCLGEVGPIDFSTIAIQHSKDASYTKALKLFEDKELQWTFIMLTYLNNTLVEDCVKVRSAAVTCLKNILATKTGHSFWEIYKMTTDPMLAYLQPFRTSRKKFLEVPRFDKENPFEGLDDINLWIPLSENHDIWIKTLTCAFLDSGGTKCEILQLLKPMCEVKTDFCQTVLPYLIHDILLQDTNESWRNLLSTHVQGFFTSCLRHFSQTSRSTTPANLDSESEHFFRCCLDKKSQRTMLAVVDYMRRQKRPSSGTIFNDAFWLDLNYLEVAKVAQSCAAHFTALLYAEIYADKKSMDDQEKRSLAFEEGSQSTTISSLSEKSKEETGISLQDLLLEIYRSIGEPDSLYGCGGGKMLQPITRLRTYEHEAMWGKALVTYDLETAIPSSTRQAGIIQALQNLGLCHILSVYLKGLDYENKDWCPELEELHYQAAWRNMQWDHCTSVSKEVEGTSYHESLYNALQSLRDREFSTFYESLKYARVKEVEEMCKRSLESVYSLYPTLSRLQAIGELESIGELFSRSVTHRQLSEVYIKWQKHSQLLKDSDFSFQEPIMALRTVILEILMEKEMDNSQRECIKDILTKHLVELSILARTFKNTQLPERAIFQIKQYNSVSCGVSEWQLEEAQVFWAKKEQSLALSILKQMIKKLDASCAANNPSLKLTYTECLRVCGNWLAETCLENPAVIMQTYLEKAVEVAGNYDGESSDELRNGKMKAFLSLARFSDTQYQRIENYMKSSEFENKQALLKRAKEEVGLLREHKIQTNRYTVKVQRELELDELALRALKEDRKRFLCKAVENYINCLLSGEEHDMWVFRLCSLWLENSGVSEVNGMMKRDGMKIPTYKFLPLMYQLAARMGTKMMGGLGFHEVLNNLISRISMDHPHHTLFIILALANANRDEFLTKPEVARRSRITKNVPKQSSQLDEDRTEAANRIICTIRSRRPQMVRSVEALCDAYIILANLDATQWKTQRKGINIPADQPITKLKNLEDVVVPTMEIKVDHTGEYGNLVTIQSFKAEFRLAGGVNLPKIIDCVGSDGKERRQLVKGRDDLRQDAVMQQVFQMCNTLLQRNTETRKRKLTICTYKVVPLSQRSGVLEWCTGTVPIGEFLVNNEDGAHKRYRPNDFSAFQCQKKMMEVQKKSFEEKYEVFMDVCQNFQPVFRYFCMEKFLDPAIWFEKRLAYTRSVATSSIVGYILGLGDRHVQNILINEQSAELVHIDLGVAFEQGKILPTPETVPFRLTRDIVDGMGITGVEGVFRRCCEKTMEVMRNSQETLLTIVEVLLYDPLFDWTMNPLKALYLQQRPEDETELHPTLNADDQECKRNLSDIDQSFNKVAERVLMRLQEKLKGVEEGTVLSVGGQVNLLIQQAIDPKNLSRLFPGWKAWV
# assay_name: ATM inhibition test (phosphorylation of Chk2 generated by ionizing radiation, AlphaScreen SureFire)
# Assay type: cell-based
# condition: phosphorylated Chk2 in NCI-H460 cells, ionizing radiation 8Gy, 1 hour after test compound treatment; read-out: ATM inhibitory activity
pIC50: −log10 of the molar value.

COCCCN1CCC(Nc2ccc3c(c2)Cc2cccc(-c4cc(N5CCOCC5)cc(=O)[nH]4)c2O3)CC1 = 5.70 to 6.30
COCC(CN1CCCCC1)Nc1ccc2c(c1)Sc1cccc(-c3cc(N4CCOCC4)cc(=O)[nH]3)c1S2 (stereo not drawn) = 6.30 to 7.00
CC(Nc1ccc2c(c1)Sc1cccc(-c3cc(N4CCOCC4)cc(=O)[nH]3)c1S2)c1cccc(CN(C)C)n1 (stereo not drawn) = 6.30 to 7.00
CCC(Nc1ccc2c(c1)Sc1cccc(-c3cc(N4CCOCC4)cc(=O)[nH]3)c1S2)[C@H](CC)N1CCOCC1 (stereo partly drawn) = 6.30 to 7.00
CCCCC(Nc1ccc2c(c1)Sc1cccc(-c3cc(N4CCOCC4)cc(=O)[nH]3)c1S2)[C@H](C)N1CCOCC1 (stereo partly drawn) = 6.30 to 7.00

The record that follows has no pIC50 shown yet.
## Task Query (molecule): Cc1cnc(C(C)Nc2ccc3c(c2)Sc2cccc(-c4cc(N5CCOCC5)cc(=O)[nH]4)c2S3)nc1 (single isomer, unassigned) [Example 1-12-139-1] ; field requested: pIC50
## Result > 7.00

Taken from patent US9586951B2.
